Catalogue of self-cleavage readings, one per entry.
B1: LINE1-full (parent)
chain: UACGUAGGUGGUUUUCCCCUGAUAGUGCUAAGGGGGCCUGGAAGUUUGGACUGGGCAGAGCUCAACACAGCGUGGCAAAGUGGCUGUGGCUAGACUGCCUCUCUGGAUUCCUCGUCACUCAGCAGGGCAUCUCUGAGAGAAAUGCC

Variants of: B1
Test: self-cleavage, relative activity (ratio to wild type); higher = more cleavage; in vitro, sequencing; the parent is a self-cleaving ribozyme
Please reply with the value in numeric form only.

Record excerpt, results attached:
mutation label: U52A A141U
quantitative readout: 1.35
--
mutation label: G41C U132A
quantitative readout: 1.35
--
mutation label: U9A U91A
quantitative readout: 0.53
--
mutation label: A2G G114A
quantitative readout: 0.82
--
mutation label: A57G G127A
quantitative readout: 0.94
--
mutation label: A50G U62G
quantitative readout: 0.1
--
mutation label: A22G G36A
quantitative readout: 1.36
--
mutation label: U13C U96A
quantitative readout: 0.11

Record request: self-cleavage value, item U62C C110A 0.05

Entry to check: A64G A121G 0.28

Entry to check: A6U U52A 1

Entry to check: U62C U134A 0.05

Entry to check: G32A U102C 1.62

Entry to check: G54U A117G 0.52

Entry to check: A6G G33A 0.49

Entry to check: U100C G127A 1.9

Entry to check: U39C A57U 0.06
